All figures here come from patent US9029409B2.

// reported pIC50 per item
# Assayed System: recombinant human MMP13 catalytic domain (CD) (Homo sapiens, UniProt P45452)
# Construct: catalytic domain (CD) construct encompassing residues 20-274 (SWISS-PROT P45452)
# Assay: MMP-13 catalytic domain FRET enzyme assay
# Measurement Parameters: recombinant human MMP-13 catalytic domain
pIC50: −log10 of the molar value.

Provide pIC50 value for the following compound: COc1cc(CNC(=O)c2cc(C3=NOC(c4cccc(CN5CCOCC5)c4)C3)nc(C)n2)ccc1F (stereo not shown)
> 8.00

Note down pIC50 recorded for `COc1cccc(CNC(=O)c2cc(C3=NO[C@H]([C@@H]4CO[C@@H](CO)CO4)C3)nc(C)n2)c1`
7.00 to 8.00

Please give the documented pIC50 of Cc1nc(C(=O)NCc2ccc(F)c(C)c2)cc(C2=NOC(C3CCN(C(=O)CO)CC3)C2)n1 (stereo not shown)
7.00 to 8.00

Provide only the value of recorded pIC50 for COc1cc(CNC(=O)c2cc(C3=NOC(c4cc(C(N)=O)nn4C)C3)nc(C)n2)ccc1F (stereo not shown)
6.00 to 7.00

For the compound `Cc1nc(C(=O)NCc2ccc(F)c(Cl)c2)cc(C2=NO[C@@H]([C@H]3CC[C@H](NC(=O)[C@H](C)O)CC3)C2)n1` , report pIC50.
7.00 to 8.00

Determine its reported pIC50: Cc1nc(C(=O)NCc2ccc(F)c(C)c2)cc(C2=NOC(c3ccc(C#N)nn3)C2)n1 (stereo not shown)
> 8.00

// fetch pIC50 given entry COc1cc(CNC(=O)c2cc(C3=NOC(C(=O)NCCO)C3)nc(C)n2)ccc1F (stereo not shown)
6.00 to 7.00

Could you please provide reported pIC50 for COc1cc(CNC(=O)c2cc(C3=NOC(c4ccc(C(C)=O)cn4)C3)nc(C)n2)ccc1F (stereo not shown) ? Thanks!
> 8.00

Quote pIC50 reported for `Cc1nc(C(=O)NCc2ccnc3ccccc23)cc(C2=NO[C@@H]([C@H]3CO[C@H](CO)CO3)C2)n1` please.
6.00 to 7.00

For the compound `COc1cc(CNC(=O)c2cc(C3=NO[C@H]([C@@H]4CO[C@@H](C(=O)O)CO4)C3)nc(C)n2)ccc1F` , report pIC50.
7.00 to 8.00

----------
# Assayed System: recombinant human MMP13 catalytic domain (CD) (Homo sapiens)
# Construct: catalytic domain (CD) construct encompassing residues 20-274 (SWISS-PROT P45452)
# Assay: MMP-13 catalytic domain FRET enzyme assay
# Measurement Parameters: recombinant human MMP-13 catalytic domain
# Procedure: A recombinant human MMP13 catalytic domain (CD) construct encompassing residues 20-274 (SWISS-PROT P45452) was generated by synthetic gene methods and bacterial expression. […] The assay is based on the cleavage of this substrate by MMP-13, resulting in decrease of FRET between the donor-acceptor pair and subsequent fluorescence enhancement. […] Fluorescence was measured on a Victor V5 plate reader (Perkin Elmer, Turku, Finland). […]
pIC50: −log10 of the molar value.
Experimental Readout: pIC50

Below, 3 compounds whose answers are already recorded.
COc1cc(CNC(=O)c2cc(C3=NOC(C4CCN(C(=O)CNS(C)(=O)=O)CC4)C3)nc(C)n2)ccc1F (centres unmarked): 7.00 to 8.00
COc1cc(CNC(=O)c2cc(C3=NO[C@H]([C@H]4CO[C@H](CO)CO4)C3)nc(C)n2)ccc1F: > 8.00
COc1cc(CNC(=O)c2cc(C3=NOC(c4ccc(N5CCC(CO)CC5)cc4)C3)nc(C)n2)ccc1F (centres unmarked): 7.00 to 8.00

Consider the compound COc1cc(CNC(=O)c2cc(C3=NOC(C4CCN(C(=O)NC(C)C)CC4)C3)nc(C)n2)ccc1F (centres unmarked) and give its recorded pIC50.
7.00 to 8.00

Supply reported pIC50 belonging to this compound: Cc1nc(C(=O)NCc2ccc(F)cc2)cc(C2=NOC(c3ccc(=O)n(C)c3)C2)n1 (centres unmarked)
7.00 to 8.00

In one line, give reported pIC50 of the entry COc1ccc(CNC(=O)c2cc(C3=NOC(c4ccc(OC)cc4)C3)ccn2)cc1 (centres unmarked) .
6.00 to 7.00

Give the value of pIC50 reported for the following: COc1cc(CNC(=O)c2cc(C3=NOC(C4CCN(C(=O)N(C)CCO)CC4)C3)nc(C)n2)ccc1F (centres unmarked)
> 8.00

Return pIC50 (reported value) for this compound: `Cc1nc(C(=O)NCc2ccc(F)c(C)c2)cc(C2=NO[C@H]([C@H]3CC[C@H](NC(=O)[C@H](C)O)CC3)C2)n1`
> 8.00
